Measured values drawn from ChEMBL document CHEMBL3396987 for this set.

Molecular target: Bromodomain-containing protein 4 (Homo sapiens, UniProt O60885)
Assay: Inhibition of BRD4 bromodomain-1 (unknown origin) by europium based LANCE TR-FRET assay
pIC50: −log10 of the molar value.
Would you mind labelling by pIC50? At or over 5 is Condition met, under is Condition not met.

Request: Has COc1cccc(C(=O)Nc2ncnc3[nH]cnc23)c1 a recorded pIC50 greater than or equal to 5?
Response: Condition not met

Request: Has CN(C)c1ccccc1C(=O)Nc1ncnc2[nH]cnc12 a recorded pIC50 greater than or equal to 5?
Response: Condition met

Request: Has COc1ccccc1C(=O)Nc1ncnc2[nH]cnc12 a recorded pIC50 greater than or equal to 5?
Response: Condition not met

Request: Has COc1ccc(C(=O)Nc2ncnc3[nH]cnc23)cc1 a recorded pIC50 greater than or equal to 5?
Response: Condition not met

Request: Has COc1cc(OC)c(C(=O)Nc2ncnc3[nH]cnc23)cc1OC a recorded pIC50 greater than or equal to 5?
Response: Condition met
